Values from paper PMC6592895

Target: OAT3 (Homo sapiens)
Sequence (Q8TCC7 1-542): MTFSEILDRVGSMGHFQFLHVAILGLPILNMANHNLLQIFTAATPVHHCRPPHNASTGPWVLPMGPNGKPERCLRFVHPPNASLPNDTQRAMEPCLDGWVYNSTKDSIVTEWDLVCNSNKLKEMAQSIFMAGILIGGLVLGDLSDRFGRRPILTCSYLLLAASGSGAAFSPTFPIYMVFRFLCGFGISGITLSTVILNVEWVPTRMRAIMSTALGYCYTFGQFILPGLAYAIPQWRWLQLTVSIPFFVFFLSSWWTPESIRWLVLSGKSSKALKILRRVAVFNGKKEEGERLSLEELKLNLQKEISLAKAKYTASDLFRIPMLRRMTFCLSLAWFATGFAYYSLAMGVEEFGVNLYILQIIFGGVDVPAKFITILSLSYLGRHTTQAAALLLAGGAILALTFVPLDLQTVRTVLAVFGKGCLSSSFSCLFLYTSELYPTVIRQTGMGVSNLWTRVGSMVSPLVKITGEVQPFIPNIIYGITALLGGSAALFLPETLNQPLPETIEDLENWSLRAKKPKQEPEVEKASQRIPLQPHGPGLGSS
Experiment: 6-CF uptake assay in HEK-OAT3 cells
Note that class boundaries on IC50 are lo (below 6 µM), med (6 µM to below 10 µM), hi (10 µM or more)

Prompt: Lab note: which band did "COc1ccccc1-c1cc(=O)c2ccccc2o1" land in?
Response: med

Prompt: Lab note: which band did O=c1cc(-c2ccccc2O)oc2ccccc12 [Compound 10, 2′-hydroxyflavone] land in?
Response: hi

Prompt: Lab note: which band did COc1ccc(O)cc1-c1cc(=O)c2ccccc2o1 [Compound 5, 2′-methoxy-5′-hydroxyflavone] land in?
Response: hi

Prompt: Lab note: which band did "COc1ccc(OC)c(-c2cc(=O)c3c(OC)c(OC)ccc3o2)c1OC" land in?
Response: med

Prompt: Lab note: which band did "COc1cccc(OC)c1-c1cc(=O)c2c(OC)c(OC)cc(OC)c2o1" land in?
Response: hi

Prompt: Lab note: which band did COc1cc(-c2cc(=O)c3ccccc3o2)cc(O)c1OC [Compound 6, 3′-hydroxy-4′,5′-dimethoxyflavone] land in?
Response: lo

Prompt: Lab note: which band did O=c1cc(-c2cccc(O)c2)oc2ccccc12 [Compound 9, 3′-hydroxyflavone] land in?
Response: med

Prompt: Lab note: which band did "COc1ccc(OC)c(-c2cc(=O)c3ccccc3o2)c1" land in?
Response: hi

Prompt: Lab note: which band did "COc1ccccc1-c1cc(=O)c2c(OC)c(OC)ccc2o1" land in?
Response: lo

Prompt: Lab note: which band did "O=c1cc(-c2ccccc2)oc2ccccc12" land in?
Response: lo

====

Task for the reader: assign each of the following compounds its reported inhibition at 5 min, 50 µM.
molecular target: OAT1 (Homo sapiens); assay: 6-CF uptake assay in HEK-OAT1 cells; settings: human, HEK293 cells stably overexpressing OAT1 (HEK-OAT1), pH 7.2, probe 6-CF (4 µM)
Sequence (Q4U2R8 whole entry): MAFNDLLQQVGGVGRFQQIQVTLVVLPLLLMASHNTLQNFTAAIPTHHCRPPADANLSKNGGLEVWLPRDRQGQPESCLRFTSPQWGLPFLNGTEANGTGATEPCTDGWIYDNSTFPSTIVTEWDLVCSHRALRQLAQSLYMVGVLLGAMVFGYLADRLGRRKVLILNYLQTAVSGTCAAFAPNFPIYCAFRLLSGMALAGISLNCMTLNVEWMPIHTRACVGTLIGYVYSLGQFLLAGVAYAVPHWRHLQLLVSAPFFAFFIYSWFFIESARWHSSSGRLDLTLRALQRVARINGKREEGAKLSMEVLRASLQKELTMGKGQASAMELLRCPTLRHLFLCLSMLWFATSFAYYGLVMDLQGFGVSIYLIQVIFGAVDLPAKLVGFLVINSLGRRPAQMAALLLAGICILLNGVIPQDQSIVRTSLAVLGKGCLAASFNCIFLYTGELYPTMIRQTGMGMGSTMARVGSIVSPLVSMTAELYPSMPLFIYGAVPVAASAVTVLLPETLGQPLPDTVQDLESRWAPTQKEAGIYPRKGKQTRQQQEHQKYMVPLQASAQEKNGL

Prompt: Entry "COc1cccc(-c2cc(=O)c3ccccc3o2)c1" has what inhibition at 5 min, 50 µM?
Response: < 70%

Prompt: Entry O=c1cc(-c2ccccc2O)oc2ccccc12 [Compound 10, 2′-hydroxyflavone] has what inhibition at 5 min, 50 µM?
Response: < 70%

Prompt: Entry "COc1cccc(OC)c1-c1cc(=O)c2c(OC)c(OC)cc(OC)c2o1" has what inhibition at 5 min, 50 µM?
Response: < 70%
